Tested on: E. coli M50 producing CMY 6, DHA-1/2 beta-lactamase enzymes
PROTOCOL_NOTES: Time kill study against clinical isolate of E. coli M50
Type: cell-based
ASSAY_SETUP: agent alone 4 mcg/ml; 8 hour
TEST_READOUT: Bacterial count (Log10 CFU/ml) 8 hour
Unit Log10 CFU/ml implied. Number only.

>  <SMILES_ENTRY>
COCC1=C(C(=O)O)N2C(=O)[C@@H](NC(=O)/C(=N\OC)c3csc(N)n3)[C@H]2SC1

>  <SYSTEM_NAME>
E. coli M50 producing CMY 6, DHA-1/2 beta-lactamase enzymes

>  <Bacterial count (Log10 CFU/ml) 8 hour>
8.40

$$$$
>  <SMILES_ENTRY>
C=CC1=C(C(=O)O)N2C(=O)[C@@H](NC(=O)/C(=N\OCC(=O)O)c3csc(N)n3)[C@H]2SC1

>  <SYSTEM_NAME>
E. coli M50 producing CMY 6, DHA-1/2 beta-lactamase enzymes

>  <Bacterial count (Log10 CFU/ml) 8 hour>
8.65

$$$$
>  <SMILES_ENTRY>
NCCONC(=O)[C@@H]1CC[C@@H]2CN1C(=O)N2OS(=O)(=O)O

>  <SYSTEM_NAME>
E. coli M50 producing CMY 6, DHA-1/2 beta-lactamase enzymes

>  <Bacterial count (Log10 CFU/ml) 8 hour>
5.34

$$$$
>  <SMILES_ENTRY>
Nc1nc(/C(=C/CC(=O)O)C(=O)N[C@@H]2C(=O)N3C(C(=O)O)=CCS[C@H]23)cs1

>  <SYSTEM_NAME>
E. coli M50 producing CMY 6, DHA-1/2 beta-lactamase enzymes

>  <Bacterial count (Log10 CFU/ml) 8 hour>
8.93

$$$$

Please find the next molecule below.
IN: Identify the measured Bacterial count (Log10 CFU/ml) 8 hour of "CO/N=C(\C(=O)N[C@@H]1C(=O)N2C(C(=O)O)=C(COC(N)=O)CS[C@H]12)c1ccco1" for E. coli M50 producing CMY 6, DHA-1/2 beta-lactamase enzymes.
OUT: 8.65

---

Test system: K. pneumoniae H521 producing KPC, SHV and TEM beta-lactamase enzymes
PROTOCOL_NOTES: Time kill study against clinical isolate of K. pneumoniae H521
Type: cell-based
ASSAY_SETUP: agent alone 4 mcg/ml; 4 hour
# key: entry, value: Bacterial count (Log10 CFU/ml) 4 hour
Unit Log10 CFU/ml implied. Number only.

Recorded Bacterial count (Log10 CFU/ml) 4 hour, per entry:
>  <COMPOUND>
COCC1=C(C(=O)O)N2C(=O)[C@@H](NC(=O)/C(=N\OC)c3csc(N)n3)[C@H]2SC1 [Cefpodoxime]

>  <Bacterial count (Log10 CFU/ml) 4 hour>
8.74

$$$$
>  <COMPOUND>
CO/N=C(\C(=O)N[C@@H]1C(=O)N2C(C(=O)O)=C(COC(N)=O)CS[C@H]12)c1ccco1 [Cefuroxime]

>  <Bacterial count (Log10 CFU/ml) 4 hour>
8.70

$$$$
>  <COMPOUND>
Nc1nc(/C(=C/CC(=O)O)C(=O)N[C@@H]2C(=O)N3C(C(=O)O)=CCS[C@H]23)cs1 [Ceftibuten]

>  <Bacterial count (Log10 CFU/ml) 4 hour>
8.88

$$$$
>  <COMPOUND>
NCCONC(=O)[C@@H]1CC[C@@H]2CN1C(=O)N2OS(=O)(=O)O [Compound of Formula (I)]

>  <Bacterial count (Log10 CFU/ml) 4 hour>
8

$$$$

Please find the next compound below.
IN: Identify the measured Bacterial count (Log10 CFU/ml) 4 hour of C=CC1=C(C(=O)O)N2C(=O)[C@@H](NC(=O)/C(=N\OCC(=O)O)c3csc(N)n3)[C@H]2SC1 [Cefixime] for K. pneumoniae H521 producing KPC, SHV and TEM beta-lactamase enzymes.
OUT: 8.85

---

Test system: K. pneumoniae H521 producing KPC, SHV and TEM beta-lactamase enzymes
PROTOCOL_NOTES: Time kill study against clinical isolate of K. pneumoniae H521
Format: cell-based
ASSAY_SETUP: agent alone 4 mcg/ml; 8 hour
TEST_READOUT: Bacterial count (Log10 CFU/ml) 8 hour

>  <MOLECULE>
COCC1=C(C(=O)O)N2C(=O)[C@@H](NC(=O)/C(=N\OC)c3csc(N)n3)[C@H]2SC1 [Cefpodoxime]

>  <Bacterial count (Log10 CFU/ml) 8 hour>
8.81 Log10 CFU/ml

$$$$
>  <MOLECULE>
Nc1nc(/C(=C/CC(=O)O)C(=O)N[C@@H]2C(=O)N3C(C(=O)O)=CCS[C@H]23)cs1 [Ceftibuten]

>  <Bacterial count (Log10 CFU/ml) 8 hour>
8.60 Log10 CFU/ml

$$$$
>  <MOLECULE>
C=CC1=C(C(=O)O)N2C(=O)[C@@H](NC(=O)/C(=N\OCC(=O)O)c3csc(N)n3)[C@H]2SC1 [Cefixime]

>  <Bacterial count (Log10 CFU/ml) 8 hour>
8.95 Log10 CFU/ml

$$$$
>  <MOLECULE>
CO/N=C(\C(=O)N[C@@H]1C(=O)N2C(C(=O)O)=C(COC(N)=O)CS[C@H]12)c1ccco1 [Cefuroxime]

>  <Bacterial count (Log10 CFU/ml) 8 hour>
8.60 Log10 CFU/ml

$$$$

Please find the next molecule below.
IN: Tell me the measured Bacterial count (Log10 CFU/ml) 8 hour of NCCONC(=O)[C@@H]1CC[C@@H]2CN1C(=O)N2OS(=O)(=O)O [Compound of Formula (I)] , please.
OUT: 8.04 Log10 CFU/ml

---

System: E. coli M50 producing CMY 6, DHA-1/2 beta-lactamase enzymes
PROTOCOL_NOTES: Time kill study against clinical isolate of E. coli M50
Type: cell-based
ASSAY_SETUP: agent alone 4 mcg/ml; negative = reduction
TEST_READOUT: Change in Log10 CFU/ml over 0 hour count after 8 hours (Log10 CFU/ml)
Unit Log10 CFU/ml implied. Number only.

IN: Tell me the measured Change in Log10 CFU/ml over 0 hour count after 8 hours of C=CC1=C(C(=O)O)N2C(=O)[C@@H](NC(=O)/C(=N\OCC(=O)O)c3csc(N)n3)[C@H]2SC1 [Cefixime] , please.
OUT: 1.51

IN: What do you get for Nc1nc(/C(=C/CC(=O)O)C(=O)N[C@@H]2C(=O)N3C(C(=O)O)=CCS[C@H]23)cs1 [Ceftibuten] ?
OUT: 1.79

IN: What do you get for COCC1=C(C(=O)O)N2C(=O)[C@@H](NC(=O)/C(=N\OC)c3csc(N)n3)[C@H]2SC1 [Cefpodoxime] ?
OUT: 1.26

IN: What do you get for NCCONC(=O)[C@@H]1CC[C@@H]2CN1C(=O)N2OS(=O)(=O)O [Compound of Formula (I)] ?
OUT: −1.8

IN: What do you get for CO/N=C(\C(=O)N[C@@H]1C(=O)N2C(C(=O)O)=C(COC(N)=O)CS[C@H]12)c1ccco1 [Cefuroxime] ?
OUT: 1.51

---

System: K. pneumoniae H521 producing KPC, SHV and TEM beta-lactamase enzymes
PROTOCOL_NOTES: Time kill study against clinical isolate of K. pneumoniae H521
Assay type: cell-based
ASSAY_SETUP: agent alone 4 mcg/ml; positive = increase
# key: entry, value: Change in Log10 CFU/ml over 0 hour count after 8 hours

>  <SMILES_ENTRY>
Nc1nc(/C(=C/CC(=O)O)C(=O)N[C@@H]2C(=O)N3C(C(=O)O)=CCS[C@H]23)cs1

>  <SYSTEM_NAME>
K. pneumoniae H521 producing KPC, SHV and TEM beta-lactamase enzymes

>  <VALUE>
1.42 Log10 CFU/ml

$$$$

IN: Identify the measured Change in Log10 CFU/ml over 0 hour count after 8 hours of "CO/N=C(\C(=O)N[C@@H]1C(=O)N2C(C(=O)O)=C(COC(N)=O)CS[C@H]12)c1ccco1" for K. pneumoniae H521 producing KPC, SHV and TEM beta-lactamase enzymes.
OUT: 1.42 Log10 CFU/ml

IN: What do you get for "COCC1=C(C(=O)O)N2C(=O)[C@@H](NC(=O)/C(=N\OC)c3csc(N)n3)[C@H]2SC1" ?
OUT: 1.63 Log10 CFU/ml

IN: What do you get for "C=CC1=C(C(=O)O)N2C(=O)[C@@H](NC(=O)/C(=N\OCC(=O)O)c3csc(N)n3)[C@H]2SC1" ?
OUT: 1.77 Log10 CFU/ml

IN: What do you get for "NCCONC(=O)[C@@H]1CC[C@@H]2CN1C(=O)N2OS(=O)(=O)O" ?
OUT: 0.86 Log10 CFU/ml
